# Lookup of reported inhibition keyed by entry
study_system: Polyadenylate-binding protein 1 (Homo sapiens)
protocol_summary: PABP poly(A) RNA binding inhibitors, primary screen, biochemical, fluorescence polarization, uHTS (AID 2014);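 further: calls also rest on retests at 20 µM and on dose response follow-up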
experimental_setup: at 35 µM, hits give high values
About 3,000 (1%) of roughly 290,000 compounds were called active. Only a selection was taken, and actives are over-represented in it overall.
Form entry: value (%) — number only.

Answered cases to consult:
Cc1c(C)c(C)c2[nH]c(=S)[nH]c2c1C	9.8
COc1cc(/C=N\Nc2ccc([N+](=O)[O-])cn2)ccc1OCC(=O)O	13.3
O=C(c1ccco1)N1CCN(Cc2cccc(C(F)(F)F)c2)CC1	6.5
O=C(NCC(=O)N1CCN(c2ccccc2F)CC1)c1cccs1	7.4
Cn1c(N)cc(-c2ccc(F)cc2)c(C#N)c1=O	59.1
CCn1cc(C(=O)N2CC(C)CC(C)C2)c(=O)c2cc(S(=O)(=O)N3CCCC3)ccc21 (configuration not stated)	-11.3
CC(=O)NS(=O)(=O)c1ccccc1	8.1
O=S(=O)(c1ccc(F)cc1)N1CC=C(c2ccccc2)CC1	4.6

Output measured inhibition for this item: "Fc1ccccc1CNC(=S)Nc1ccc(Cl)cc1"
59.1

Output measured inhibition for this item: "Cc1ccc(-n2c(C)cc(/C=N/Nc3ccc([N+](=O)[O-])cn3)c2C)c(C)c1"
10.5

Output measured inhibition for this item: "COc1cc(/C=C/C(=O)N2CCc3ccccc3C2)cc(OC)c1OC"
2.6

Output measured inhibition for this item: COc1ccc(C(CNC(=O)c2ccc(S(=O)(=O)Nc3ccccc3F)cc2)N(C)C)cc1 (configuration not stated)
53.4

Output measured inhibition for this item: "O=C(c1ccc(CS(=O)(=O)c2ccccc2)o1)N1CCN(c2ccccc2)CC1"
28.3

Output measured inhibition for this item: "O=C(N/C(=C\c1ccc([N+](=O)[O-])cc1)C(=O)N1CCCCC1)c1ccco1"
4.9

Output measured inhibition for this item: "COc1ccc(O)c(C(=O)c2cnc3c(c2)c(-c2ccc(F)cc2)c(C#N)c(=O)n3C)c1"
7.5

Output measured inhibition for this item: "Cc1ccc(S(=O)(=O)NC(=O)c2cccc(C)c2)cc1"
4.3

Output measured inhibition for this item: "CCN(CC(=O)NCc1ccco1)S(=O)(=O)c1ccc(F)cc1"
-5.2

Output measured inhibition for this item: O=C(NC1CC1)C(Cc1ccccc1)NS(=O)(=O)c1ccccc1F (configuration not stated)
-3.9

Output measured inhibition for this item: "NC(=O)c1sc2nc3c(c(-c4ccccc4)c2c1N)CCC3"
-3.5

Output measured inhibition for this item: "CCN(CCCNC(=O)c1ccc2c(c1)NC(=O)CN2C)c1cccc(C)c1"
0.9

Output measured inhibition for this item: CCOc1cc(CN2CCCC(CO)(Cc3ccc(F)cc3F)C2)ccc1OC (configuration not stated)
4.9

Output measured inhibition for this item: "O=[N+]([O-])c1ccccc1/C=C/CN1CCC(O)CC1"
4.7

Output measured inhibition for this item: Cc1ccc(-n2ncc3c2CCCC3NC(=O)c2cnccn2)cc1C (configuration not stated)
5.7

Output measured inhibition for this item: "CCOc1ccc(S(=O)(=O)Nc2ccc(OC)nc2)cc1"
9.7

Output measured inhibition for this item: Cc1ccc(S(=O)(=O)N2CC(C)N(S(C)(=O)=O)C2)cc1 (configuration not stated)
2

----------
study_system: Polyadenylate-binding protein 1 (Homo sapiens)
protocol_summary: PABP poly(A) RNA binding inhibitors, primary screen, biochemical, fluorescence polarization, uHTS (AID 2014);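 further: calls also rest on retests at 20 µM and on dose response follow-up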
experimental_setup: at 35 µM, hits give high values
About 3,000 (1%) of roughly 290,000 compounds were called active. The sample holds actives, similar compounds and a random draw of the others, so the mix is not that of the screen.
experimental_readout: inhibition

Answered cases to consult:
Cc1ccc2nc3c(cc(C(=O)NCCc4ccccc4)c(=N)n3CC3CCCO3)c(=O)n2c1 (stereo unspecified)	83.3% (active)
N#Cc1cccc(CN2CCC(=O)N([C@H](CO)c3ccccc3)CC2)c1	5.7% (inactive)
O=C(CCS(=O)(=O)Cc1ccccc1)Nc1ccc2c(c1)OCCO2	72% (active)
Cc1ccnc(N2C(=O)c3ccc([N+](=O)[O-])cc3C2=O)c1	47.5% (inactive)
CCCCC(=O)Nc1ccc2c(c1)OCCO2	-6.8% (inactive)

Now examine the next entry.
Output measured inhibition for this item: "O=C(NNS(=O)(=O)c1ccc(Cl)cc1)C1CCN(Cc2ccccc2)CC1"
-4% (inactive)

----------
study_system: Polyadenylate-binding protein 1 (Homo sapiens)
protocol_summary: PABP poly(A) RNA binding inhibitors, primary screen, biochemical, fluorescence polarization, uHTS (AID 2014);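 further: calls also rest on retests at 20 µM and on dose response follow-up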
experimental_setup: at 35 µM, hits give high values
Screen size: about 290,000 compounds; about 3,000 (1%) were called active. For the sample, actives were picked, then their nearest neighbours and some compounds at random.
experimental_readout: inhibition

COc1ccc(-n2c(-c3ccc(OC)c(OC)c3)n[nH]c2=S)cc1	4.9% (inactive)
COc1ccc(Nc2cc(Cl)ccc2C(=O)O)cn1	72.3% (active)

Output measured inhibition for this item: "Cc1ccc(SCCSc2ncccn2)cc1"
8.3% (inactive)

Output measured inhibition for this item: "Cn1c(=O)oc2cc(S(=O)(=O)NCCC(=O)NCc3ccccc3Cl)ccc21"
1% (inactive)

Output measured inhibition for this item: "COc1ccc(-c2csc(Nc3ccc(O)cc3)n2)cc1"
6.1% (inactive)

----------
study_system: Polyadenylate-binding protein 1 (Homo sapiens)
protocol_summary: PABP poly(A) RNA binding inhibitors, primary screen, biochemical, fluorescence polarization, uHTS (AID 2014);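 further: calls also rest on retests at 20 µM and on dose response follow-up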
experimental_setup: at 35 µM, hits give high values
Screen size: about 290,000 compounds; about 3,000 (1%) were called active. Many of the other results were omitted from the sample, so actives are more common in it than they were.
# Lookup of reported inhibition keyed by entry
Form entry: value (%) — number only.

CCOc1ccc(-n2cnnn2)cc1S(=O)(=O)N1CCC(C)CC1C (stereo unspecified)	74.4
COc1cc(CC(=O)NCc2cccs2)cc(OC)c1OC	-5.2
O=C(CCc1nnc2ccc(NCCCN3CCCC3=O)nn12)NCc1ccccc1Cl	2.5
Cc1cccc(-c2c(NC(=O)c3ccco3)oc3ccc(Cl)cc3c2=O)c1	-6.1
N#CC1=C(N)N(c2ccc(F)cc2)C(=O)C1	97.6

Output measured inhibition for this item: COc1cccc(/C=C2/SC(=S)N(CC(=O)NC3C=CS(=O)(=O)C3)C2=O)c1 (stereo unspecified)
8.2

----------
study_system: Polyadenylate-binding protein 1 (Homo sapiens)
protocol_summary: PABP poly(A) RNA binding inhibitors, primary screen, biochemical, fluorescence polarization, uHTS (AID 2014);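 further: calls also rest on retests at 20 µM and on dose response follow-up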
experimental_setup: at 35 µM
Hit rate of the full screen: of about 290,000 compounds, about 3,000 (1%) were called active. How the calls were made is not given here. What follows is part of a selection rich in actives, with near analogues and random picks from the rest.
Permitted responses: true = active, false = inactive

// return assay outcome for CCc1ccc(OCC2c3cc(OC)c(OC)cc3CCN2C(C)=O)cc1 (stereo not given)
false

// return assay outcome for "COc1ccccc1C1CCN(c2ccc([N+](=O)[O-])cn2)CC1"
false

// return assay outcome for "COC(=O)c1cnn2c(C(F)(F)F)cc(-c3ccco3)nc12"
false

// return assay outcome for "COc1ccc(Nc2ccc([N+](=O)[O-])cn2)cn1"
true

// return assay outcome for "CN(C)CCN(C(=O)C1CCCCC1)c1nc2cc3c(cc2s1)OCO3"
false

----------
# Lookup of reported inhibition keyed by entry
study_system: Polyadenylate-binding protein 1 (Homo sapiens) (UniProt P11940)
Sequence (P11940 whole entry, looked up): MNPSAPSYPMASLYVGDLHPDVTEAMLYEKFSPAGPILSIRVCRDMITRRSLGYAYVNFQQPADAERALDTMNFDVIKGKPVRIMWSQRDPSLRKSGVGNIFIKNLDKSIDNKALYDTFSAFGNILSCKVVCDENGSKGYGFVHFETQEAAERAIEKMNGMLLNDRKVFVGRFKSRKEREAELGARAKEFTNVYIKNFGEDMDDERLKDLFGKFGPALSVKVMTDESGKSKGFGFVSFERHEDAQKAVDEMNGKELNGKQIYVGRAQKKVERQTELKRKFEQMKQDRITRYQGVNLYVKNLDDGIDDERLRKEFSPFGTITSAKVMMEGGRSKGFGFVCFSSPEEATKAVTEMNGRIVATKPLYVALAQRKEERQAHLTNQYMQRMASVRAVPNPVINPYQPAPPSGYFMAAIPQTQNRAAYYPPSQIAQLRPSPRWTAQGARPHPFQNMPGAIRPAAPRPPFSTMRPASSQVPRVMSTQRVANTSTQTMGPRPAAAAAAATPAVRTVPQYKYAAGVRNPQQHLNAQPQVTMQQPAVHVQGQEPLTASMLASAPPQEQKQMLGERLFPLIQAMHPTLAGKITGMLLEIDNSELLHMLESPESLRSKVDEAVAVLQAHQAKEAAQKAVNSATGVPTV
protocol_summary: PABP poly(A) RNA binding inhibitors, primary screen, biochemical, fluorescence polarization, uHTS (AID 2014);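 further: calls also rest on retests at 20 µM and on dose response follow-up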
experimental_setup: at 35 µM, hits give high values
Among all 290,000 compounds or so, about 3,000 (1%) were called active. This is one part of a sample in which actives are shown more often than they occur.
Form entry: value (%) — number only.

O=C(CNC(=O)c1ccccc1F)c1ccc(Br)cc1	0.1
S=C(NCc1cccs1)Nc1ccc(Cl)cc1	-4.3
COc1ccc(NS(=O)(=O)c2ccc(N3CCOCC3)c(NC(=O)c3ccccc3Br)c2)cc1	3.8

Now examine the next entry.
Output measured inhibition for this item: "COc1ccc(NS(=O)(=O)c2ccc(F)cc2F)cn1"
70.3

----------
study_system: Polyadenylate-binding protein 1 (Homo sapiens) (UniProt P11940)
protocol_summary: PABP poly(A) RNA binding inhibitors, primary screen, biochemical, fluorescence polarization, uHTS (AID 2014);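 further: calls also rest on retests at 20 µM and on dose response follow-up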
experimental_setup: at 35 µM, hits give high values
Among all 290,000 compounds or so, about 3,000 (1%) were called active. Only a selection was taken, and actives are over-represented in it overall.
experimental_readout: inhibition (%)
Form entry: value (%) — number only.

Answered cases to consult:
Cc1cc(=O)oc(C)c1C(=O)NCc1ccc(F)cc1	28.4
COc1cc(C(F)(F)F)c(C(=O)N(C)c2ccc(Cl)cc2)cn1	-5.6
CN1CCc2nc(SC(C(=O)O)c3ccccc3)c(C#N)c(-c3cccs3)c2C1 (centres undefined)	68.1

Now examine the next entry.
Output measured inhibition for this item: "C[n+]1ccc(C(=O)NCc2ccccc2)cc1"
64.2
